Provenance of the data: PubChem BioAssay (Tox21)

- Protocol Text: qHTS RealTime-Glo MT Cell Viability Assay in HEK293 cells - 40 hour (AID 1224874); also: % is scaled to controls: 0 for no effect and ±100 for the full control effect; nearly all actives have a fitted effect of over 50% in size
- Cond: RealTime-Glo luminescence; active compounds read low
Records with an inconclusive call do not appear.
Observable: max response (%)
Value expressed in %; do not type the unit.

Problem: Which max response reading was recorded for the compound CC(=O)NNc1ccccc1 ?
Solution: 2.64

Problem: Endpoint output: max response of NP(N)(=O)NC(=O)c1ccc(F)cc1 . Value?
Solution: 1.36

Problem: Recorded max response of CCSCc1ccccc1OC(=O)NC , please.
Solution: -1.43

Problem: Need max response of N#CC(C#N)=C(C#N)C#N , thanks.
Solution: 20.6

Problem: Fill blank: measured max response of the compound Oc1cccc(Cl)c1 is ____.
Solution: 0.464

Problem: # query: max response of entry O=C1NC(=O)C(=O)C(=O)N1
Solution: 6.33

Problem: Could you tell me which max response is on file for CCc1ccccc1N ?
Solution: 1.07

Problem: Consider the compound CCNC(=O)NC(=O)/C(C#N)=N/OC and give its measured max response.
Solution: 18.1

* * *

- Protocol Text: Caspase-3/7 induction in HepG2 cells by small molecules, qHTS cell viability counter screen (AID 1346981); also: nearly all actives have a fitted effect of over 30% in size
- Cond: CellTiter-Fluor fluorescence, 17 h; series mostly up to 92.4 µM
Results filed as inconclusive are left out. The source made the active and inactive calls. The call rests on the fitted dose curve; in most records, active means well fitted cell-killing curve with a large enough effect in the repeat runs; inconclusive means weak or mixed curves, or effect the other way; inactive means flat fitted curve, though single readings scatter.
Write down the outcome that applies. Available outcomes: active, inactive

Problem: Tell me the recorded outcome of this test for CCOP(=O)(O)C(N)=O .
Solution: inactive

Problem: Just curious, what result did CCNC(=O)NC(=O)/C(C#N)=N/OC get here?
Solution: inactive

Problem: Each compound tested received a call. Report the one for SCc1ccccc1 .
Solution: inactive

Problem: Identify the outcome logged in this assay for the compound shown: CC(C)c1ccc(OP(=O)(Oc2ccc(C(C)C)cc2)Oc2ccc(C(C)C)cc2)cc1
Solution: inactive

Problem: Name the outcome recorded for Cc1cnc(C2=NC(C)(C(C)C)C(=O)N2)c(C(=O)O)c1 (configuration not stated) in the assay.
Solution: inactive

Problem: Fill in: this test's call for CCCCCCCCCCCC[N+](C)(C)CCOc1ccccc1 is ___
Solution: active

Problem: Dear colleague, could you share the recorded outcome for O=P(OCC(Br)CBr)(OCC(Br)CBr)OCC(Br)CBr (configuration not stated) when you have a moment?
Solution: inactive

* * *

- Experimental Target: Cytochrome P450 3A4 (Homo sapiens) (UniProt P08684)
- Sequence (P08684 whole entry, looked up): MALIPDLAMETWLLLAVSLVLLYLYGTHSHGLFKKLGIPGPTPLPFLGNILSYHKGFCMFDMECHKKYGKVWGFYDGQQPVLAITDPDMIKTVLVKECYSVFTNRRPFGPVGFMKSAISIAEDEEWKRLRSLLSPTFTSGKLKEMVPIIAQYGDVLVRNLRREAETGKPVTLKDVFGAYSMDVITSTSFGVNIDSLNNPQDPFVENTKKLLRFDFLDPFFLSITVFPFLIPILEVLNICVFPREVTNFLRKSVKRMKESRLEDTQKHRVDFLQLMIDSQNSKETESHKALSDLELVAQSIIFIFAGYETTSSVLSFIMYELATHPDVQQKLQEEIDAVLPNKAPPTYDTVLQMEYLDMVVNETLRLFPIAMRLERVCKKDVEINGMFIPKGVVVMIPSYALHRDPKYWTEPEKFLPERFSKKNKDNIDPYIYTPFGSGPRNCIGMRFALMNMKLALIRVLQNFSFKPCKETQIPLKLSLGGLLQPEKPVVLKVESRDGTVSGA
- Protocol Text: Cytochrome P450 Family 3 Subfamily A Member 4 (CYP3A4) small molecule antagonists: luciferase reporter qHTS assay (AID 1671201); also: nearly all actives have a fitted effect of over 50% in size
- Cond: P450-Glo CYP3A4 enzyme, luciferin luminescence, 1 h; series mostly up to 115 µM
- Source text: National Center for Advancing Translational Sciences [NCATS] U.S. Environmental Protection Agency [EPA] National Institutes of Environmental Health Sciences [NIEHS] National Toxicology Program [NTP] U.S. Food and Drug Administration [FDA] Cytochrome P450 (CYP) enzymes are membrane-bound hemeproteins that play a key role in metabolism of drugs and xenobiotics. […] The luciferin products formed are detected with a luciferin detection reagent, and the amount of light produced is proportional to CYP activity. […]
Records with an inconclusive call do not appear. Activity calls are given as the source filed them. Calls follow the shape of the dose curve; as a rule, active = well fitted inhibition curve with a large enough effect in the repeat runs; inconclusive = weak or mixed curves; inactive = no such curve, though single readings can be large or run the other way.
Parameter call: string, one of YES = active, NO = inactive

Problem: Call for entry O=C(O)C(F)(F)C(F)(F)C(F)(F)C(F)(F)C(F)(F)F :
Solution: NO

Problem: Hi, sorry to bother you, what did the test record for O=C(O)c1cc(I)cc(I)c1I ?
Solution: NO

Problem: // param item: CCCC[N+](CCCC)(CCCC)CCCC ; yields the recorded call
Solution: NO

Problem: How did this test come out for Nc1cc(Cl)cc(C(=O)O)c1Cl ?
Solution: NO

Problem: // param item: Oc1cccc(Cl)c1 ; yields the recorded call
Solution: NO

Problem: GET /call?item= CCCSP(=S)(OCC)Oc1ccc(SC)cc1 (stereo not given) returns the recorded outcome of this test.
Solution: YES

Problem: Hi, do you know how COC1=CC(=O)O[C@@H](/C=C/c2ccc3c(c2)OCO3)C1 came out in this test?
Solution: YES

Problem: Identify the outcome logged in this assay for the compound shown: COc1cc(CC#N)cc(OC)c1OC
Solution: NO

Problem: Could you please tell me the result logged for Nc1ccccc1C(=O)OCC(O)CO (stereo not given) in this assay?
Solution: NO

Problem: Given CCCC(C)(COC(N)=O)COC(=O)NC(C)C (stereo not given) , state the outcome it received in this test.
Solution: NO

Problem: Hi team, can someone confirm the assay call for CCC(=O)O[C@@H]1C=C2CCC3C(CCC4(C)C3CC[C@@H]4OC(=O)CC)C2CC1 (stereo not given in full) ?
Solution: NO

Problem: Which outcome was assigned to C=CCOCC1CO1 (stereo not given) in this test?
Solution: YES

Problem: Given Cc1ccccc1 , state the outcome it received in this test.
Solution: NO

Problem: Please state the recorded outcome for this compound: CCOc1cccc(C2(N3CCN(c4ccccc4)CC3)CCC(C)CC2)c1 (stereo not given)
Solution: NO

Problem: How was COCc1cnc(C2=NC(C)(C(C)C)C(=O)N2)c(C(=O)O)c1 (stereo not given) classified in this test?
Solution: NO

Problem: Each compound tested received a call. Report the one for O=S(=O)(Cl)Cl .
Solution: NO

Problem: Test call for this compound, please: C=CCc1ccc(OC(=O)Cc2ccccc2)c(OC)c1
Solution: YES

Problem: Tell me the assay call for CC[N+]1(C)CCCC(OC(=O)C(O)(c2ccccc2)c2ccccc2)C1 (stereo not given) please.
Solution: NO

Problem: Hi, do you know how O=C(N[C@H]1CN2CCC1CC2)c1ccc2c(c1)OCCO2 came out in this test?
Solution: NO

Problem: Outcome? N#CC1(N=NC2(C#N)CCCCC2)CCCCC1
Solution: YES

Problem: What was the test verdict on C[N+](C)(C)CCOC(=O)C(O)(c1ccccc1)c1ccccc1 ?
Solution: NO

Problem: Which outcome did this test record for the compound CCCCCl ?
Solution: NO

Problem: Write down the call the test reported for this compound. Item: NC(=O)CF
Solution: NO

Problem: Which outcome was entered for the compound CCCCC#N in this test?
Solution: NO

Problem: Which result was noted for this compound in the test: NC(=S)c1c(Cl)cccc1Cl
Solution: YES

Problem: Fill in: this test's call for CC(Oc1cccc(Cl)c1)C(=O)O (stereo not given) is ___
Solution: NO

Problem: Just curious, what result did CC(C)(C)CC(C)(C)c1ccc(O)cc1 get here?
Solution: NO

Problem: Tell me the assay call for C#CC(O)(C=CCl)CC (stereo not given) please.
Solution: NO

Problem: Please indicate how the test categorized C=CC(=O)NC(C)(C)CC(C)=O .
Solution: NO

Problem: Hello, I am checking results. What call was entered for c1ccc2sc(SNC3CCCCC3)nc2c1 ?
Solution: NO
